Source of measurements: ChEMBL document CHEMBL3507680

assay: Human HepG2 cell viability assay in 384 well format; format: toxicity, cell-based; set-up: dose 125 nL, time 70.5 hour; concentration not given beside the values; settings: HepG2 cells, read-out: Inhibition
measured_attribute: cytotoxicity at 70.5 h (%)
Answer format: numeric, % implied, no suffix.

Output cytotoxicity at 70.5 h of CNC(=O)CC1COCCN1C(=O)C1(c2ccc(Cl)cc2)CCC1 (stereo unspecified) 7.35

Identify measured cytotoxicity at 70.5 h corresponding to Cc1nc(CN2C(=O)CCC23CCN(Cc2cccn2C)CC3)cs1 -9.94

Give reported cytotoxicity at 70.5 h value for Cc1nc(NC(=O)OC(C)(C)C)sc1C(N)=O -2.34

Complete the entry with cytotoxicity at 70.5 h for Cn1cccc1-c1cc(C(=O)N2CC(c3cccnc3)C2)[nH]n1 -5.83

Answer with the recorded cytotoxicity at 70.5 h of COC(=O)N1CCCCC1C(=O)N(C)Cc1cc(-c2cccnc2)no1 (stereo unspecified) only. -8.4

Item Cc1ccc(NC2CCN(C(=O)Cc3c(C)nn(C)c3C)CC2)nn1 : provide cytotoxicity at 70.5 h -1.21

For the compound Cc1ccc(CN2CCC(F)(F)C3(CCN(c4cnccn4)C3)C2)o1 (stereo unspecified) , report cytotoxicity at 70.5 h. -1.47

Respond only with cytotoxicity at 70.5 h recorded for CC(O)CN1CCN(Cc2cccc(C(=O)N3CCCCC3)c2)CC1 (stereo unspecified) 17.1

Could you please provide reported cytotoxicity at 70.5 h for COc1ccc(C2CCCN2C(=O)NCCn2ccnc2)cc1 (stereo unspecified) ? Thanks! 1.98

Return the recorded cytotoxicity at 70.5 h value; entry: O=C(NCCC1=CCCCC1)c1cc(-c2ccc(O)cc2)n[nH]1 -1.77

Fill in reported cytotoxicity at 70.5 h for this entry: O=C(NC[C@]1(O)CCN(Cc2ccccc2F)C[C@H]1O)c1c[nH]cn1 -0.237

Output measured cytotoxicity at 70.5 h for this item: Cn1nc(Br)c2c(NCCNc3ncccn3)ncnc21 -21.3

Return reported cytotoxicity at 70.5 h. Input compound: CC(C)c1ccc(CNC(C)c2ccc(S(C)(=O)=O)cc2)cc1 (stereo unspecified) -8.82

Name the recorded cytotoxicity at 70.5 h of the compound listed here: O=C(CN1CCN(CCO)CC1)NCCc1c(F)cccc1F -1.38

Please supply the value of reported cytotoxicity at 70.5 h for the item CCCNC(=O)CCNC1CSCCc2ccccc21 (stereo unspecified) -2.78

Give me measured cytotoxicity at 70.5 h, please, for this compound: FC(F)(F)CN1CCC(CNc2nc3ccccc3o2)C1 (stereo unspecified) 1.85
